The measured values listed here are drawn from the supplement of paper PMC10567573.

B1: VENTX (parent)
chain: VFQHHQYLSPLERKRLAREMQLSE

variants of: B1; experiment: protein stability index of a GFP-peptide fusion (GPS, HEK-293T) (PSI 1-6); higher = more stable; settings: c terminus: a fixed tail appended;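 further: lentivirally expressed fusions sorted by FACS into six bins by GFP to DsRed ratio, PSI derived from sequencing read proportions per bin multiplied by bin number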
ENDPOINT LABEL: protein stability index
Answers are plain numbers.

{"SEQUENCE ENTRY": "VFQHHQYLSPLERKRLAREMQVSE [L22V]", "protein stability index": 2.27}
{"SEQUENCE ENTRY": "VFQHHQYLSPLERKREAREMQLSE [L16E]", "protein stability index": 3.1}
{"SEQUENCE ENTRY": "VFPHHQYLSPLERKRLAREMQLSE [Q3P]", "protein stability index": 2.98}
{"SEQUENCE ENTRY": "VFQHHQYLSPLERKRLAREMQISE [L22I]", "protein stability index": 1.93}
{"SEQUENCE ENTRY": "VFQVHQYLSPLERKRLAREMQLSE [H4V]", "protein stability index": 2.7}

// batch mode: one protein stability index value per listed entry
1. VFQHHQYLSPLERKRLAVEMQLSE [R18V]
2. VFQHHQYLSPLERKRLAREMQLSQ [E24Q]
3. VFQKHQYLSPLERKRLAREMQLSE [H4K]

Completion:
1. 1.63
2. 2.5
3. 2.5

// batch mode: one protein stability index value per listed entry
1. VFQHHQYLSPLERIRLAREMQLSE [K14I]
2. VFQHHQYDSPLERKRLAREMQLSE [L8D]
3. VFQHHQYLSPLEPKRLAREMQLSE [R13P]
4. VFQHHQYLSPLERKRLAREMQLVE [S23V]
5. VFEHHQYLSPLERKRLAREMQLSE [Q3E]
6. VFQDHQYLSPLERKRLAREMQLSE [H4D]
7. VFQHHQYLSPGERKRLAREMQLSE [L11G]
8. VFQIHQYLSPLERKRLAREMQLSE [H4I]

Completion:
2.88
3.31
2.06
2.18
3.84
3.68
1.95
2.43

Prompt: Item VFQHHQYLSPLERKRLAREMSLSE [Q21S] has what recorded protein stability index?
Completion: 2.77
